- method.notes: gradient 5% acetonitrile 3 min, to 50% in 2 min, to 85% in 15 min, held 3 min, 100 µL/min
- measurement.context: column: Zorbax Extend-C18 2.1 x 50 mm; eluents: water / acetonitrile, 0.1% formic acid
Listing: RP-LC retention time of selected compounds
Respond with the bare value in s.

Consider the worked cases shown below.
[[record]]
compound = "Cn1c(=O)n(C2CCN(C(=O)Cc3ccsc3)CC2)c2ncncc21"
unit = "s"
reported_measurement = 630

[[record]]
compound = "O=C(COc1ccc(Cl)cc1Cl)NCC1CCN(C(=O)c2ccccc2F)CC1"
unit = "s"
reported_measurement = 858

[[record]]
compound = "COc1ccccc1C(=O)N1CCC2(CC1)OCCN2S(=O)(=O)c1ccc(F)c(C)c1"
unit = "s"
reported_measurement = 835


RP-LC retention time reading for CCCNC(=O)N(Cc1c(C)nn(-c2ccccc2)c1Oc1ccccc1OC)CC1CCCO1 (stereo not given) : 917

Entry Cc1ccc(C)c(NS(=O)(=O)c2cc3n(c2)CCCNC3=O)c1 , RP-LC retention time reported as 663

According to the records, this compound COc1cccc(NC(=O)CN2C(=O)C3CCCCN3c3ccc(S(=O)(=O)N(C)C)cc32)c1 (stereo not given) displays RP-LC retention time of 902

Just so you know, measured RP-LC retention time for Cc1cccc(NC(=O)c2csc(-c3cn(C)c4ncccc34)n2)c1C came out at 1050

So for CCCNc1nnc(-c2nnc(CC)o2)c2ccccc12 , the logged RP-LC retention time turned out to be 647

GET /value?item= Cc1ccc(S(=O)(=O)N2CC3CN(C(=O)C4COc5ccccc5O4)CC(C2)O3)cc1 (stereo not given) &field=RP-LC retention time returns 928

Recorded RP-LC retention time (compound CCn1cc(SCC(=O)Nc2c(C)cc(C)cc2C)c2ccccc21 ): 998

# RP-LC retention time of Cc1ccc(Cl)cc1N1CCN(C(=O)c2csc(C(=O)NC3CC3)n2)CC1 = 972

Input Cn1c(=O)n(C)c2cc(CNCCc3ccc(Cl)cc3)ccc21 . Output RP-LC retention time: 630
